# experimental-details: self-splicing fitness, log relative to wild type (ln ratio); higher = more splicing; Tetrahymena group I intron in knt gene, E. coli kanamycin selection, DiMSum; sequences stand for … in CUCUCU…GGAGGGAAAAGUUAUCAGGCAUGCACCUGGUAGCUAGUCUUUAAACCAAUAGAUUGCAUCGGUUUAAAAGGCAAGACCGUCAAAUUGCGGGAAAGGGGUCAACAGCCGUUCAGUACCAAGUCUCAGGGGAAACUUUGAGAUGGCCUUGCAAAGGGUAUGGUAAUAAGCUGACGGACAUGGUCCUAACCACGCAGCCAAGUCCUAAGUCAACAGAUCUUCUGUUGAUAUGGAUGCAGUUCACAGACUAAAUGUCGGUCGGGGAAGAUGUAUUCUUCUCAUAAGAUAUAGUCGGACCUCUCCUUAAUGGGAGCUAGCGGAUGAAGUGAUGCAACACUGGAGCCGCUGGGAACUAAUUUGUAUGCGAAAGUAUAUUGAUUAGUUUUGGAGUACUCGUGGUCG;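 further: selection with 25 µg/mL kanamycin versus none on LB agar overnight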
# condition-parameters: 30 °C
quantity-measured: self-splicing fitness (ln)

>  <residues>
AGAGAGCAAUAUUACGAUCC

>  <self-splicing fitness (ln)>
-2.71

$$$$
>  <residues>
UCGAAGCAAUAUUACGUGGG

>  <self-splicing fitness (ln)>
-2.34

$$$$
>  <residues>
AAGCAGCAAUAUUACGUCGG

>  <self-splicing fitness (ln)>
-2.24

$$$$
>  <residues>
AACUAGCAAUAUUACGCAUC

>  <self-splicing fitness (ln)>
-2.73

$$$$
>  <residues>
GAAAAGCAAUAUUACGAAGC

>  <self-splicing fitness (ln)>
-3.19

$$$$

// batch mode: one self-splicing fitness (ln) value per listed entry
1. AACAAGCAAUAUUACGUUGC
2. UUGUAGCAAUAUUACGUAUC
3. UGAUAGCAAUAUUACGGAGC
4. ACUAAGCAAUAUUACGAGAC
5. GGUGAGCAAUAUUACGAAAA

1. -2.83
2. -4.12
3. -3.26
4. -2.89
5. -2.57

// batch mode: one self-splicing fitness (ln) value per listed entry
1. UACGAGCAAUAUUACGCACG
2. CCAGAGCAAUAUUACGGAGA
3. GGGUAGCAAUAUUACGAGUC
4. AAUCAGCAAUAUUACGAUCU

[-2.94, -2.38, -3.63, 0.0008]

// batch mode: one self-splicing fitness (ln) value per listed entry
1. CACAAGCAAUAUUACGAGGG
2. UAGAAGCAAUAUUACGUACG
3. CCAAAGCAAUAUUACGAUCC
4. CCUAAGCAAUAUUACGAGAG
5. CUCAAGCAAUAUUACGUCUC
6. ACUUAGCAAUAUUACGUUGG
7. UUAAAGCAAUAUUACGUAGA
8. UGGAAGCAAUAUUACGUCAU

[-2.28, -0.237, -3.73, -2.31, -4.33, -1.67, -1.55, -2.99]

// batch mode: one self-splicing fitness (ln) value per listed entry
1. UGUGAGCAAUAUUACGGCUA
2. GAUCAGCAAUAUUACGUGGG
3. ACGUAGCAAUAUUACGGUCA
4. CCUGAGCAAUAUUACGUGUG
5. CAAGAGCAAUAUUACGGGCG
6. CAACAGCAAUAUUACGGAAU
7. UCAGAGCAAUAUUACGGCAA

-0.645
-3.21
-0.681
-1.62
-0.815
-2.96
-2.43
